molecular target: STAT3-SH2 (Homo sapiens, UniProt P40763)
Sequence (P40763 580-670 limits assumed): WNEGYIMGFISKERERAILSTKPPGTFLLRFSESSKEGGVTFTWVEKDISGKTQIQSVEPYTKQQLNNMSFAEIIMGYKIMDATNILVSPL

# compound, Kd (nM)
measured = [
    ("COc1cc2c(cc1C(=O)Nc1cccc3cccnc13)CCC1C(C)(C)C(=O)C(C#N)=C[C@]21C (stereo partly shown)", 1010),
]

====

target: His-STAT3^127-722 protein (Homo sapiens, UniProt P40763); experiment: Fluorescence polarization (FP) assay, STAT3-phosphopeptide interaction; assay type: binding; set-up: We purified amino acids 127–722 of the STAT3 protein for this assay; made in house; conditions: Supplementary Table 1; inhibition of STAT3 dimerization in FP assay; read-out: FP assay (IC50 μM)

# molecule, measurementTarget, IC50 (µM)
measured = [
    ("O=[N+]([O-])c1ccc2c(c1)S(=O)(=O)C=C2 [Stattic, reference compound]", "His-STAT3^127-722 protein (Homo sapiens, UniProt P40763)", 4.99),
]

====

biological target: STAT3^127–722 protein (Homo sapiens, UniProt P40763); construct: made in house; assay: Surface plasmon resonance (SPR) assay; format: binding; details: SPR, STAT3^127–722 immobilized on CM5 chip, 25 °C
Sequence (P40763 127-722): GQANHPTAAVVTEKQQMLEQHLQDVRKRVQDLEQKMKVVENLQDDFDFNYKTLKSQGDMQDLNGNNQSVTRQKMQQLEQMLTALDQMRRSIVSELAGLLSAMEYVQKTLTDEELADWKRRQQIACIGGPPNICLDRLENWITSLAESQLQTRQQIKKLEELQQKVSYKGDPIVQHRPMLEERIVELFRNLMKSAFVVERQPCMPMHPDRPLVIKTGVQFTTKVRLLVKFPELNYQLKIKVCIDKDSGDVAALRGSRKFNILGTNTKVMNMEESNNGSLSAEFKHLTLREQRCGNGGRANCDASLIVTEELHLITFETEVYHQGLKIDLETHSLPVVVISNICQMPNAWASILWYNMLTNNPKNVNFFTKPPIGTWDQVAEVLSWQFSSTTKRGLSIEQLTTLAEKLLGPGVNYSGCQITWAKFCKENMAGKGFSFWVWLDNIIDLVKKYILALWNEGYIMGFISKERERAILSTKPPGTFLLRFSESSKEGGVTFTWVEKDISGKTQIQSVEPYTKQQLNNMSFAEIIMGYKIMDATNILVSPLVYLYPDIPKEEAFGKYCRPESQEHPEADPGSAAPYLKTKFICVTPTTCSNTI
pKd: −log10 of the molar value.
Some compounds, each annotated with its measured pKd.

# compound, pKd
rows = [
    ("COc1cc2c(cc1C(=O)Nc1cccc3cccnc13)CCC1C(C)(C)C(=O)C(C#N)=C[C@]21C (some centres unmarked) [N4]", 5.98),
    ("O=[N+]([O-])c1ccc2c(c1)S(=O)(=O)C=C2 [Stattic, reference compound]", 5.02),
]

====

target: STAT3^127–722 protein (Homo sapiens); construct: made in house; assay: Surface plasmon resonance (SPR) assay; type: binding; details: SPR, value given in figure

# compound, Kd
rows = [
    ("O=[N+]([O-])c1ccc2c(c1)S(=O)(=O)C=C2 [Stattic, reference compound]", "9.62 µM"),
]
